B1: KIAA1671 peptide 600-615 (Uncharacterized protein KIAA1671), 16-mer library wild type / MDM2 SWIB (MDM2 SWIB/MDM2 domain, residues 17-125) (parent)
chain 1: TPEDDRSFQTVWATVF
chain 2: SQIPASEQETLVRPKPLLLKLLKSVGAQKDTYTMKEVLFYLGQYIMTKRLYDEKQQHIVYCSNDLLGDLFGVPSFSVKEHRKIYTMIYRNLVVVNQQESSDSGTSVSEN

Variants of: B1
measurement-protocol: proteomic peptide phage display deep mutational scan (ProP-PD DMS): M13 P8 16-mer library selected against immobilised GST-tagged bait for four days (rounds), NGS of the eluted pools per day and pseudo-replica
experimental-context: with MDM2 SWIB (MDM2 SWIB/MDM2 domain, residues 17-125); bait immobilised on MaxiSorp plates (10 µg), library pre-cleared on GST, 2 h binding at 4 °C, five washes; one round per day, days 1-4; value from days 2 and 3; keep out of graded; scale: average fractional NGS count over selection days 2 and 3
recorded-endpoint: screen value
Please respond with just the number, no unit label.

Query: Could you tell me which screen value is on file for chain 1 W12N ?
Reply: 0

Query: Look up screen value: chain 1 T10W
Reply: 0.000295

Query: Look at this variant and give its reported screen value. chain 1 F16M
Reply: 4.28e-05

Query: Look up screen value: chain 1 P2V
Reply: 3.63e-05

Query: Recorded screen value for chain 1 T10M , please?
Reply: 0.00046

Query: Given chain 1 R6I , state its recorded screen value.
Reply: 0.000114

Query: Item chain 1 D4T has what recorded screen value?
Reply: 0.00033

Query: Reported screen value for chain 1 E3S : what is it?
Reply: 0.00105

Query: Any idea what screen value was measured for chain 1 D5W ?
Reply: 0.000664

Query: What does the record list as screen value for chain 1 T14R ?
Reply: 0.00282

Query: Would you kindly share the measured screen value for chain 1 A13P ?
Reply: 0

Query: Fill blank: measured screen value of the variant chain 1 E3N is ____.
Reply: 4.32e-05

Query: Can you look up the measured screen value of chain 1 Q9Y for me?
Reply: 0.000186

Query: Fill blank: measured screen value of the variant chain 1 D5I is ____.
Reply: 1.66e-05

Query: Can you look up the measured screen value of chain 1 D5K for me?
Reply: 1.66e-05

Query: May I ask what screen value has been recorded for chain 1 Q9I ?
Reply: 0.000133

Query: Quick one: screen value of chain 1 P2E ?
Reply: 6.83e-05

Query: Any idea what screen value was measured for chain 1 R6Y ?
Reply: 0.000693

Query: Please report the recorded screen value for chain 1 T14Y .
Reply: 0.000108

Query: # screen value lookup, item chain 1 A13V
Reply: 4.31e-05

Query: GET /values?readout=screen value&item= chain 1 Q9A
Reply: 0.000111

Query: // screen value lookup, key: chain 1 E3T
Reply: 0.000371

Query: Consider the variant shown here: chain 1 D4Y What is its recorded screen value?
Reply: 2.12e-05

Query: Form field: reported screen value of chain 1 P2L
Reply: 6.52e-05

Query: Fill in the blank: the reported screen value of chain 1 D5H is ____.
Reply: 6.55e-05

Query: Recorded screen value of chain 1 A13N , please.
Reply: 0.000173

Query: Any idea what its screen value is? The variant is chain 1 P2R
Reply: 3.9e-05

Query: Please report the recorded screen value for chain 1 T14I .
Reply: 3.81e-05

Query: Bench note: what screen value did chain 1 V11Y show?
Reply: 0.000214

Query: Fill blank: measured screen value of the variant chain 1 V15A is ____.
Reply: 0.000191

Query: Would you kindly share the measured screen value for chain 1 A13S ?
Reply: 0.000227

Query: Name the recorded screen value for chain 1 A13L .
Reply: 9.44e-05

Query: Look up screen value for this variant: chain 1 A13D
Reply: 1.83e-05

Query: Item chain 1 T10A has what recorded screen value?
Reply: 0.000165

Query: Consider the variant shown here: chain 1 R6L What is its recorded screen value?
Reply: 0.000264

Query: Any idea what screen value was measured for chain 1 D5S ?
Reply: 0.00089

Query: # lookup: screen value of chain 1 R6M
Reply: 0.000232

Query: Recorded screen value of chain 1 D5F , please.
Reply: 3.53e-05

Query: screen value; subject: chain 1 W12R
Reply: 0

Query: Endpoint output: screen value of chain 1 P2T . Value?
Reply: 0.000455

Query: Which screen value value belongs to chain 1 T10F ?
Reply: 0.000114

Query: For the variant chain 1 V11E , what screen value is on record?
Reply: 0

Query: State the recorded screen value for this entry: chain 1 P2I
Reply: 0.000159

Query: GET /values?readout=screen value&item= chain 1 D5L
Reply: 0.000477

Query: What value of screen value has been reported for the following variant? chain 1 V15F
Reply: 0.000104

Query: Consider the variant shown here: chain 1 V11W What is its recorded screen value?
Reply: 0.00167

Query: Which measured screen value value corresponds to chain 1 T14V ?
Reply: 1.9e-05

Query: So what's the measured screen value for this one? chain 1 Q9S
Reply: 8.1e-05

Query: screen value lookup needed for chain 1 T14G , thanks.
Reply: 5.64e-05

Query: Could you share which screen value value was measured for chain 1 A13R ?
Reply: 5.94e-05

Query: So what does the record say about screen value for chain 1 D5Y ?
Reply: 8.89e-05

Query: I am curious: what screen value value has been reported for chain 1 S7K ?
Reply: 6.18e-05

Query: State the recorded screen value for this entry: chain 1 D4M
Reply: 4.28e-05

Query: What value of screen value has been recorded for this entry: chain 1 D4Q
Reply: 0.000505

Query: Which screen value is listed for chain 1 R6F ?
Reply: 0.000483

Query: Consider the variant shown here: chain 1 E3P What is its recorded screen value?
Reply: 5.24e-05

Query: What does the data say about its screen value? Entry: chain 1 V15G
Reply: 0

Query: Reported screen value, variant chain 1 R6A : ____
Reply: 0.000223

Query: I have this variant here, chain 1 A13G , and I need its recorded screen value.
Reply: 0

Query: Could you share which screen value value was measured for chain 1 D5V ?
Reply: 0.000143

Query: Look up screen value for this variant: chain 1 D4V
Reply: 0.000129

Query: # input variant: chain 1 T10S ; wanted: its screen value
Reply: 0.000471

Query: Recorded screen value for chain 1 F16S , please?
Reply: 0.000197

Query: Consider the variant chain 1 V11I and give its measured screen value.
Reply: 0.00157

Query: Return reported screen value; argument: chain 1 T10Q
Reply: 0.000116

Query: Reported screen value for chain 1 S7F : what is it?
Reply: 3.36e-05

Query: Using the record for chain 1 E3Q , report its screen value.
Reply: 4.56e-05

Query: If you can, please state the reported screen value value of chain 1 P2S .
Reply: 7.3e-05

Query: Which screen value is listed for chain 1 P2Q ?
Reply: 9.58e-05

Query: Need screen value of chain 1 S7T , thanks.
Reply: 6.52e-05

Query: Dear colleague, I am looking for the recorded screen value of the following variant: chain 1 E3G
Reply: 0.000104

Query: Please give the measured screen value for this variant: chain 1 Q9W
Reply: 0.000575

Query: May I ask what screen value has been recorded for chain 1 F8N ?
Reply: 0.000113

Query: Would you mind telling me what screen value value was observed for chain 1 T14D ?
Reply: 9.35e-05

Query: What value of screen value has been recorded for this entry: chain 1 Q9F
Reply: 5.33e-05

Query: # input variant: chain 1 V11H ; wanted: its screen value
Reply: 0.0015

Query: Form field: reported screen value of chain 1 R6E
Reply: 6.31e-05

Query: I have this variant here, chain 1 E3Y , and I need its recorded screen value.
Reply: 0.00068

Query: // query screen value value for entry chain 1 F8Y
Reply: 1.9e-05

Query: I am curious: what screen value value has been reported for chain 1 T14S ?
Reply: 0.000516

Query: # lookup: screen value of chain 1 F8K
Reply: 0

Query: Look up screen value: chain 1 E3I
Reply: 0.000166

Query: I have this variant here, chain 1 Q9M , and I need its recorded screen value.
Reply: 0.000681

Query: # input variant: chain 1 T10H ; wanted: its screen value
Reply: 0.000113

Query: Looking for the measured screen value of chain 1 T14W , can you help?
Reply: 0.000103

Query: Fill in: screen value of chain 1 Q9L is ___
Reply: 0.00104

Query: Look at this variant and give its reported screen value. chain 1 P2M
Reply: 0.000288

Query: Tell me the measured screen value of chain 1 P2Y , please.
Reply: 0.000913

Query: Can you share its screen value? I mean this variant: chain 1 V15S
Reply: 2.82e-05

Query: Requested read-out: screen value. Entry: chain 1 Q9T
Reply: 4.79e-05

Query: Please look up its screen value: chain 1 T14N
Reply: 0.000664
